- System: Plasmodium falciparum
- run description: Resistance index, ratio of EC50 for chloroquine, mefloquine, pyrimethamine and atovaquone-resistant Plasmodium falciparum TM90-C2B to EC50 for chloroquine and pyrimethamine-resistant Plasmodium falciparum W2
- Assay type: functional
property name: Ratio EC50
Answer as a number with no unit attached.

Example entries begin here.
Note to self: Ratio EC50 recorded for O=c1c2c([nH]c3cc(-c4c(F)cccc4F)ccc13)CCCC2 was 0.35

Note to self: Ratio EC50 recorded for COc1ccc2c(=O)c3c([nH]c2c1)CC(C)(C)CC3 was 0.32

Note to self: Ratio EC50 recorded for CC(C)(C)c1ccc2[nH]c3c(c(=O)c2c1)CCCC3 was 4.13

More entries:
Note to self: Ratio EC50 recorded for Cc1ccc2[nH]c3c(c(=O)c2c1)CC(C)(C)CC3 was 4.6

Note to self: Ratio EC50 recorded for O=c1c2c([nH]c3ccc(-c4ccc(OCc5ccccc5)cc4)cc13)CCSC2 was 10.3

Note to self: Ratio EC50 recorded for COc1ccc2c(=O)c3c([nH]c2c1)CCCCCC3 was 1.58

Note to self: Ratio EC50 recorded for COc1cc2[nH]c3c(c(=O)c2cc1C)CSCC3 was 0.86

###

- run description: Permeability of the compound by PAMPA method at pH 7.4
- Format: ADME
- stated conditions: read-out: permeability
Binary call on Papp with cut-off 60 ×10⁻⁶ cm/s: strictly below means t, and equality or higher means f.

INPUT: Just wondering, is Papp of Cc1ccc(C)c2c(=O)c3c([nH]c12)CCCC3 below 60 ×10⁻⁶ cm/s?
OUTPUT: f

More entries:
INPUT: Just wondering, is Papp of O=c1c2c([nH]c3ccc(-c4cccnc4)cc13)CCSC2 below 60 ×10⁻⁶ cm/s?
OUTPUT: t

INPUT: Just wondering, is Papp of COc1ccc2c(=O)c3c([nH]c2c1)CCCCC3 below 60 ×10⁻⁶ cm/s?
OUTPUT: t

INPUT: Just wondering, is Papp of COc1cc2[nH]c3c(c(=O)c2cc1Cl)CC(F)(F)CC3 below 60 ×10⁻⁶ cm/s?
OUTPUT: f

INPUT: Just wondering, is Papp of COc1ccc2[nH]c3c(c(=O)c2c1)CCCC3 below 60 ×10⁻⁶ cm/s?
OUTPUT: t

###

- run description: Aqueous solubility of compound at pH 7.4 by HPLC analysis
- stated conditions: buffer
property name: solubility
Please answer in the form of a number followed by its unit of measurement.

Example entries begin here.
Note to self: solubility recorded for O=c1c2c([nH]c3ccc(-c4ccc(OC(F)(F)F)cc4)cc13)CCSC2 was 1 µM

Note to self: solubility recorded for O=c1c2c([nH]c3ccc(-c4cccnc4)cc13)CCSC2 was 37 µM

Note to self: solubility recorded for Cc1cccc2c(=O)c3c([nH]c12)CC(C)(C)CC3 was 60 µM

Note to self: solubility recorded for O=c1c2c([nH]c3ccccc13)CCCC2 was 24 µM

Note to self: solubility recorded for CCOc1ccc2[nH]c3c(c(=O)c2c1)CCCC3 was 5 µM

Note to self: solubility recorded for O=c1c2c([nH]c3ccc(-c4ccc(OCc5ccccc5)cc4)cc13)CCSC2 was 1 µM

Note to self: solubility recorded for O=c1c2c([nH]c3ccc(-c4ccc(C(F)(F)F)cc4)cc13)CCSC2 was 10 µM

Note to self: solubility recorded for CC1(C)CCc2[nH]c3cc(Cl)ccc3c(=O)c2C1 was 1 µM

More entries:
Note to self: solubility recorded for COc1cc(OC)c2c(=O)c3c([nH]c2c1)CCCC3 was 188 µM

Note to self: solubility recorded for COc1ccc2c(=O)c3c([nH]c2c1)CCCCC3 was 30 µM

Note to self: solubility recorded for COc1cc2[nH]c3c(c(=O)c2cc1Cl)CC(F)(F)CC3 was 10 µM

Note to self: solubility recorded for CN1CCc2[nH]c3ccccc3c(=O)c2C1 was 33 µM

Note to self: solubility recorded for COc1cc2[nH]c3c(c(=O)c2cc1C)CCCC3 was 23 µM

Note to self: solubility recorded for CC(C)c1ccc2[nH]c3c(c(=O)c2c1)CCCC3 was 30 µM

Note to self: solubility recorded for COc1cccc2c(=O)c3c([nH]c12)CCCC3 was 99 µM

Note to self: solubility recorded for Cc1cccc2c(=O)c3c([nH]c12)CCCC3 was 47 µM

Note to self: solubility recorded for O=c1c2c([nH]c3cc(Cl)c(Cl)cc13)CCCC2 was 1 µM

Note to self: solubility recorded for O=c1c2c([nH]c3c(C(F)(F)F)cccc13)CCCC2 was 116 µM

Note to self: solubility recorded for COc1cc2[nH]c3c(c(=O)c2cc1Cl)CCCC3 was 17 µM

Note to self: solubility recorded for Cc1ccc(C)c2c(=O)c3c([nH]c12)CCCC3 was 122 µM

Note to self: solubility recorded for O=c1c2c([nH]c3cc(Cl)cc(Cl)c13)CCCC2 was 8 µM

Note to self: solubility recorded for COc1cc(OC)c2[nH]c3c(c(=O)c2c1)CCCC3 was 152 µM

Note to self: solubility recorded for Cc1ccc2[nH]c3c(c(=O)c2c1)CCC(C)(C)C3 was 4 µM

Note to self: solubility recorded for O=c1c2c([nH]c3cc(F)cc(F)c13)CCCC2 was 3 µM

Note to self: solubility recorded for COc1ccc2[nH]c3c(c(=O)c2c1)CCCC3 was 78 µM

Note to self: solubility recorded for CC1(C)CCc2[nH]c3cccc(Cl)c3c(=O)c2C1 was 23 µM
